Just for reference, PubChem BioAssay (Tox21) is where these values come from.

# PROTOCOL_SUMMARY: A CellTox Green Cytotoxicity Assay to monitor cytotoxicity in HEK293 cells - 32 hour (AID 1224881); further: nearly all actives have a fitted effect of over 40% in size
# CONDITION_SET: CellTox Green fluorescence; series mostly up to 76.8 µM
Results filed as inconclusive are left out. Calls of active or inactive are those of the source. The call rests on the fitted dose curve; in most records, active means well fitted activation curve with a large enough effect in the repeat runs; inconclusive means weak or mixed curves; inactive means flat fitted curve, though single readings scatter.
ATTRIBUTE_MEASURED: cytotoxicity increase

O=S(=O)(O)c1ccc(Cl)cc1	inactive
COc1cc(OC)cc(OC)c1	inactive
CC(CN1CC(=O)NC(=O)C1)N1CC(=O)NC(=O)C1 (stereo not drawn)	inactive

====

# PROTOCOL_SUMMARY: qHTS assay for identifying genotoxic compounds that show differential cytotoxicity against isogenic chicken DT40 cell lines with known DNA damage response pathways - Rad54/Ku70 mutant cell line (AID 743015); further: nearly all actives have a fitted effect of over 60% in size
# CONDITION_SET: DT40 Rad54/Ku70 mutant viability, CellTiter-Glo, 40 h; series mostly up to 66.8 µM
Records with an inconclusive call do not appear. The source made the active and inactive calls. The call rests on the fitted dose curve; in most records, active means well fitted cell-killing curve with a large enough effect in the repeat runs; inconclusive means weak or mixed curves; inactive means no such curve, though single readings can be large or run the other way.
Write down the outcome that applies. Available outcomes: Yes = active, No = inactive

Reference set (5 entries):
CC(=O)SC[C@@H](C)C(=O)N1CCC[C@H]1C(=O)N[C@@H](Cc1ccccc1)C(=O)O	No
C=C(C)C(=O)OCCCC	No
NCC1CCC(C(=O)Oc2ccc(CCC(=O)O)cc2)CC1 (stereo unspecified)	No
CC1=C(O)C(=O)CO1	No
NNC(=O)OCc1ccccc1	No

Would you mind telling me which call this test gave Cc1ccccc1OCC(=O)O ?
No

Also check Cc1ccc(NC(N)=O)cc1
No

Also check O=C(CCBr)N1CCN(C(=O)CCBr)CC1
No

Also check CC(C)(C)OC(=O)c1ccccc1C(=O)O
No

Also check CCCCCCCOC(C)=O
No
